Test system: L1210 leukemia ip in BDF1 mice, survival T/C
MEASUREMENT_NOTES: NCI In Vivo Anticancer Drug Screen. Data for tumor model L1210 Leukemia (intraperitoneal) in B6D2F1 (BDF1) mice
DETAILS: endpoint: mean survival time; dose: 200.0 mg/kg/injection; schedule: Q04DX003 (ip); vehicle: Klucel (hydroxypropylcellulose) (HPC); higher = longer survival
Toxic doses and inconclusive results are not listed.
MEASURED_METRIC: T/C

Cc1cccc(C)c1NS(=O)(=O)c1ccccc1 ... 103 % of control

T/C for `O=[N+]([O-])c1ccc2c(c1)=N/C(=N\c1nc(O)c(O)[nH]1)N=2` is 98 % of control

T/C for `C=CCNC(=S)Nc1cc(Cl)ccc1C` is 100 % of control

T/C for `O=[N+]([O-])c1ccc(/C=N\Nc2ccc([N+](=O)[O-])cn2)cc1` is 93 % of control

T/C for `CC(C)(C)c1cc(-c2cc(C(C)(C)C)c(O)c(C(C)(C)C)c2)cc(C(C)(C)C)c1O` is 107 % of control

T/C for `CCCNC(=S)NC` is 95 % of control

T/C for Cc1ccc([N+](=O)[O-])cc1NC(=O)N1CCCCC1C (configuration not stated) is 88 % of control

T/C for `Cc1nc(-c2ccccc2)c(-c2ccccc2)[nH]1` is 101 % of control

T/C for Cc1ccc(N2C(=O)CC(Sc3ccccc3N)C2=O)cc1Cl (configuration not stated) is 93 % of control

T/C for COc1ccc(Cl)cc1N1C(=O)C2C(C1=O)C1(Cl)C(Cl)=C(Cl)C2(Cl)C1(Cl)Cl (configuration not stated) is 98 % of control

T/C for `NC(=O)c1ccc(C(F)(F)F)cc1O` is 97 % of control

T/C for `CCC(=O)c1ccc2ccccc2c1` is 104 % of control

* * *

In this section, each of the compounds is paired with its reported T/C.
System: L1210 leukemia ip in BDF1 mice, survival T/C
MEASUREMENT_NOTES: NCI In Vivo Anticancer Drug Screen. Data for tumor model L1210 Leukemia (intraperitoneal) in B6D2F1 (BDF1) mice
DETAILS: endpoint: mean survival time; dose: 25.0 mg/kg/injection; schedule: Q04DX002 (ip); vehicle: Klucel (hydroxypropylcellulose) (HPC); higher = longer survival
Toxic doses and inconclusive results are not listed.

Below, 5 compounds whose answers are already recorded.
O=C(O)c1cccc(Cl)c1.[Ni] ... 103 % of control
O=C1OC(/C=C/c2ccccc2)=NC/1=C\c1cccc([N+](=O)[O-])c1 ... 93 % of control
O=C(O)CC1CCCCC1CC(=O)O (configuration not stated) ... 101 % of control
CCOC(=O)NC(NC(=O)OCC)C(Br)(Br)Br ... 104 % of control
CC(=O)N1Cc2ccc(/C=C(/C#N)C(N)=O)n2Cc2cc3c(cc21)OCO3 ... 91 % of control

T/C for O=[N+]([O-])c1ccc(N/N=C2\CCC3CC23)c([N+](=O)[O-])c1 (configuration not stated) is 105 % of control

T/C for O=C1C2C3CCC(O3)C2C(=O)N1C(=O)N1C(=O)C2C3CCC(O3)C2C1=O (configuration not stated) is 101 % of control

* * *

In this section, each of the molecules is paired with its reported T/C.
Tested on: L1210 leukemia ip in BDF1 mice, survival T/C
MEASUREMENT_NOTES: NCI In Vivo Anticancer Drug Screen. Data for tumor model L1210 Leukemia (intraperitoneal) in B6D2F1 (BDF1) mice
DETAILS: endpoint: mean survival time; dose: 400.0 mg/kg/injection; schedule: Q04DX002 (ip); vehicle: Klucel (hydroxypropylcellulose) (HPC); higher = longer survival
Inconclusive results and toxic doses are left out.

CCCCCCCCCCCCCCCCCCNC(=O)N1CCC(C)CC1 ... 97 % of control
O=c1c2c(=O)c3ccccc3c(=O)c=2c(=O)c2ccccc12 ... 89 % of control
Cc1cccc(C)c1OC(=O)Nc1ccccc1 ... 101 % of control
CC(C)(C)OC1C2C=CC1C1C2C2(Cl)C(Cl)=C(Cl)C1(Cl)C21OCCO1 (configuration not stated) ... 110 % of control
O=C1NC2Cc3ccccc3CC12 (configuration not stated) ... 86 % of control

Now turn to the next molecule.
T/C for `O=C(Nc1ccccc1Cl)N(C1CCCCC1)C1CCCCC1` is 106 % of control
